biological target: recombinant HCV NS5B (HCV RNA-dependent RNA polymerase) (Hepatitis C virus genotype 1b, UniProt P26663); test: biochemical; settings: HCV polymerase activity, list of compounds of Example 27; read-out: IC50 (polymerase activity)
Sequence (P26663 2420-3010 limits assumed): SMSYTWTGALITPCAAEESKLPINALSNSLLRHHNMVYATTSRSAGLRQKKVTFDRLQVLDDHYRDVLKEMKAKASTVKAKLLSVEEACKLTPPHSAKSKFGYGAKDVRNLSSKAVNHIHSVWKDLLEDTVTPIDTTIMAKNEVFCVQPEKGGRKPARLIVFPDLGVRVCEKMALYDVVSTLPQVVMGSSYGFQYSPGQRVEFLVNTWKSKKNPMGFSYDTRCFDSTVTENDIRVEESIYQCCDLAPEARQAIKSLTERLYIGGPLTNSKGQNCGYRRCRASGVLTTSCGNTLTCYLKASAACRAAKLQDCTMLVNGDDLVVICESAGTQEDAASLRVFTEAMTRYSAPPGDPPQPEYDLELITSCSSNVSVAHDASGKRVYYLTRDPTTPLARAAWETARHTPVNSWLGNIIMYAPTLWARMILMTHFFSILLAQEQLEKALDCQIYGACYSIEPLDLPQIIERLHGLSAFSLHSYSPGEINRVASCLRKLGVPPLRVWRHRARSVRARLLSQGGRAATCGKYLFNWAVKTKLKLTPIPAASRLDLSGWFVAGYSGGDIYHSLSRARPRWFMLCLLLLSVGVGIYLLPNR
measure-name: IC50

O=C(O)c1sc(-c2ccccc2)cc1N(C(=O)c1ccc(Cl)cc1Cl)C1CCC(C(=O)O)C1 (centres unmarked) : < 5 µM
CC(C)N(c1cc(-c2ccc(-c3ccc(Cl)cc3)cc2)sc1C(=O)O)C(=O)[C@H]1CC[C@H](C)CC1 : < 5 µM
CC(C)N(C(=O)C1=CC[C@@H](C)CC1)c1cc(-c2ccccc2)sc1C(=O)O : < 5 µM
CC(C1CCNCC1)N(C(=O)c1ccc(Cl)cc1Cl)c1cc(-c2ccccc2)sc1C(=O)O (centres unmarked) : < 5 µM
CC(=O)N(Cc1cccc(C)c1)c1cc(-c2ccccc2)sc1C(=O)O : 5 to 20 µM
CC(C)N(C(=O)c1ccc(Cl)cc1Cl)c1cc(-c2nccs2)sc1C(=O)O : < 5 µM
O=C(O)c1sc(-c2ccccc2)cc1N(Cc1ccccc1Cl)C(=O)C1CCC1 : 5 to 20 µM

Then there is this compound:
Looking up O=C(NC1CCC(N(C(=O)c2ccc(Cl)cc2Cl)c2cc(-c3ccccc3)sc2C(=O)O)CC1)OCc1ccccc1 (centres unmarked) [Compound 515] , I found its IC50 recorded as < 5 µM

====

Please respond with reported IC50 for every item in the list.
target: recombinant HCV NS5B (HCV RNA-dependent RNA polymerase) (Hepatitis C virus genotype 1b, UniProt P26663); assay: biochemical; conditions: related polymerase activity (Example 27 list); read-out: IC50

Recorded results for 2 molecules are shown here.
O=C(O)c1sc(-c2ccccc2)cc1NS(=O)(=O)c1ccccc1OC(F)(F)F : > 20 µM
CC(=O)c1ccc(-c2cc(NS(=O)(=O)c3ccc(C)cc3)c(C(=O)O)s2)cc1 : < 5 µM

Would you mind listing IC50 for each of the following molecules?
1. O=C(O)c1sc(-c2ccccc2)cc1NS(=O)(=O)c1ccccn1
2. CCN(C(=O)C1CCCC1)c1cc(-c2ccccc2)sc1C(=O)O
3. CN(C(=O)c1ccc(Cl)cc1Cl)c1cc(-c2ccccc2)sc1C(=O)O
4. Cc1ccccc1S(=O)(=O)Nc1cc(-c2cccc([N+](=O)[O-])c2)sc1C(=O)O
5. Cc1ccccc1S(=O)(=O)Nc1cc(-c2cc(F)cc(F)c2)sc1C(=O)O
6. CC(C)N(C(=O)c1ccc(Cl)cc1Cl)c1cc(-c2ccc([S+](C)[O-])cc2)sc1C(=O)O (centres unmarked)

["> 20 µM", "5 to 20 µM", "< 5 µM", "< 5 µM", "< 5 µM", "< 5 µM"]

====

molecular target: recombinant HCV NS5B (HCV RNA-dependent RNA polymerase) (Hepatitis C virus genotype 1b, UniProt P26663); assay: biochemical; details: HCV polymerase activity, list of compounds of Example 27; read-out: IC50 (polymerase activity)
Give measured IC50 for each item. Keep answers brief.

CC(COCc1ccccc1)N(C(=O)c1ccc(Cl)cc1Cl)c1cc(-c2ccccc2)sc1C(=O)O (stereo not shown) [Compound 516] : < 5 µM
O=C(O)c1sc(-c2ccccc2)cc1N(Cc1ccc([N+](=O)[O-])cc1)C(=O)C1CC1 [Compound 420] : 5 to 20 µM
COCC(=O)N(Cc1ccccc1)c1cc(-c2ccccc2)sc1C(=O)O [Compound 452] : < 5 µM
O=C(O)c1sc(-c2ccccc2)cc1N(Cc1ccc(C(F)(F)F)cc1)C(=O)C1CCCCC1 [Compound 436] : < 5 µM

Quick batch: IC50 for everything below.
1. COc1cccc(CN(C(=O)C2CCC2)c2cc(-c3ccccc3)sc2C(=O)O)c1 [Compound 473]
2. CC1CCC(C(=O)N(c2cc(-c3ccc(C#N)cc3)sc2C(=O)O)C(C)C)CC1 (stereo not shown) [Compound 576]
3. CCCC(=O)N(Cc1ccccc1Cl)c1cc(-c2ccccc2)sc1C(=O)O [Compound 447]

5 to 20 µM
< 5 µM
< 5 µM

Below is a list of compounds. For each, state its recorded IC50.
1. CC(C)(C)c1ccc(CN(C(=O)C2CCCCC2)c2cc(-c3ccccc3)sc2C(=O)O)cc1 [Compound 441]
2. N=C(N)N1CCC(N(C(=O)c2ccc(Cl)cc2Cl)c2cc(-c3ccccc3)sc2C(=O)O)CC1 [Compound 506]
3. O=C(O)c1sc(-c2ccccc2)cc1N(Cc1ccccc1)C(=O)C1CC1 [Compound 454]
4. O=C(O)c1sc(-c2ccccc2)cc1N(CC1CCNCC1)C(=O)c1ccc(Cl)cc1Cl [Compound 519]

["< 5 µM", "< 5 µM", "< 5 µM", "< 5 µM"]

Please give IC50 for each item listed below.
1. CC(C)N(C(=O)c1ccc(Cl)cc1Cl)c1cc(-c2ccc(-c3nnn[nH]3)cc2)sc1C(=O)O [Compound 430]
2. O=C(O)c1sc(-c2ccccc2)cc1N(Cc1ccc(Cl)cc1)C(=O)C1CC1 [Compound 459]
3. COc1cccc(CN(C(=O)CC(C)C)c2cc(-c3ccccc3)sc2C(=O)O)c1 [Compound 472]

1: < 5 µM; 2: 5 to 20 µM; 3: < 5 µM

List the reported IC50 of each compound below.
1. O=C(O)c1sc(-c2ccccc2)cc1N(Cc1ccccc1Cl)C(=O)C1CCCCC1 [Compound 444]
2. CC(C)C(=O)N(Cc1ccccc1Cl)c1cc(-c2ccccc2)sc1C(=O)O [Compound 421]

["< 5 µM", "5 to 20 µM"]
